Would you mind telling me the reported IC50 of each entry?
- TGT: T1, human PD-1 expressed on cells (human, UniProt Q15116 25-288)
- T1 construct: whole, on cells; also called CHO-K1/huPD-1; CHO-K1-hPD-1 cells
- RUN DESCRIPTION: cell RBA FACS; competitor PD-L1/Fc
Numbers only here, please. The scale is nM.

Lab book: IC50 of mAb713c (antibody, V domains shown, also called mAb73c) VH: EVKLVESGGGLVKPGGSLELSCAASGFTSSDYGMHWVRQAPEKGLEWVAYISSGSYTIYYADTVKGRFTISRDNAKNTLFLQMTSLRSEDTAMYYCAKRGGSSHVNVMDYWGQGTSVTVSS VL: DIQMTQSSSYLSVSLGGRVTITCKASDHINNWLAWYQQKPGNAPRLLISGATSLETGVPSRFSGSGSGKDYTLSITSLQTEDVATYYCQQYWSPPYTFGGGTKLEIK noted as 0.91

Lab book: IC50 of HumAb713-9 (antibody, human IgG1, kappa, L234A L235A, V domains shown, humanized mAb713) VH: EVQLVESGGGLVQPGGSLRLSCAASGFTFSDYGMHWVRQAPGKGLEWVSYISSGSYTIYYADTVKGRFTISRDNAKNSLYLQMNSLRDEDTAVYYCARRGGSSHVNVMDYWGQGTTVTVSS VL: DIQMTQSPSSLSASVGDRVTITCKASDHINNWLAWYQQKPGKAPKLLISGATSLETGVPSRFSGSGSGTDYTFTISSLQPEDIATYYCQQYWSPPYTFGGGTKVEIKR noted as 1.2
